Hey, just so you know, these numbers are from patent US10870875B2.

Target: recombinant honeybee (Apis mellifera) silk protein AmelF3, unmodified, SEQ ID NO: 39 (Apis mellifera)
Construct: sponges and films
Assay: Binding of macrocycles/chelates to AmelF3 sponges or films (colour retained after washing, UV/Vis)
Conditions: sponge; macrocycle in excess; retention of colour after washing, qualitative
RESULT_TYPE: Binding properties

INSERT INTO measurements (compound, result_type, measured) VALUES
  ('C=Cc1c(C)c2cc3[nH]c(cc4nc(cc5nc(cc1[nH]2)C(C)=C5CCC(=O)OC)C(CCC(=O)OC)=C4C)c(C)c3C=C', 'Binding properties', 'Does not bind'),
  ('CCC1=C(C)c2cc3[nH]c(cc4[nH]c(cc5nc(cc1n2)C(C)=C5CC)c(C)c4CC)c(C)c3CC [drawing 2]', 'Binding properties', 'Does not bind');

* * *

Molecular target: recombinant honeybee (Apis mellifera) silk protein AmelF3, SEQ ID NO: 39, containing bound haem b (film) (Apis mellifera)
Sequence (A0ACM8QI31 20-335): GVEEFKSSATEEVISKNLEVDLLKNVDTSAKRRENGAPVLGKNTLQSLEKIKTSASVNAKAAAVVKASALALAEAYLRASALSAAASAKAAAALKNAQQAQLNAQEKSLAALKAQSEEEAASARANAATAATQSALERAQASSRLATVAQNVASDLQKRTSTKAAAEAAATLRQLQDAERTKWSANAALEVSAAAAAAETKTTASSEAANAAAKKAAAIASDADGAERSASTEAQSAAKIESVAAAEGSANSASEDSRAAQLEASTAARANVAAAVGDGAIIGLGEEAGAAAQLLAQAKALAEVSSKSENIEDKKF
Experiment: NO binding to reduced AmelF3-haem b film (UV/Vis)
Conditions: NO added as diethylamine NONOate to dithionite-reduced film, 50 mM phosphate pH 7; decrease in absorbance at 420 nm, sigmoidal fit modified from Hill equation; read-out: dissociation constant
RESULT_TYPE: Kd
Hi, when you answer, please include the unit after the number. Thanks!

**Query** Sample [N]=O [NO, nitric oxide] — what was its Kd?
**Result** 6.7 µM

* * *

Target: recombinant honeybee (Apis mellifera) silk protein AmelF3, unmodified, SEQ ID NO: 39 (Apis mellifera)
Construct: sponges and films
Assay: Binding of macrocycles/chelates to AmelF3 sponges or films (colour retained after washing, UV/Vis)
Conditions: sponge or film, qualitative
RESULT_TYPE: binding to silk protein (in words)

INSERT INTO results (compound, measured) VALUES
  ('CCC1=C(C)c2cc3[nH]c(cc4[nH]c(cc5nc(cc1n2)C(C)=C5CC)c(C)c4CC)c(C)c3CC', 'no binding is obtained'),
  ('C1=CC2C3=NC(=N\C4N/C(=N\C5=NC(=N\C6N/C(=N\3)c3ccccc36)/C3C=CC=CC53)c3ccccc34)/C2C=C1 (stereo not shown) [drawing 5, Phthalocyanine]', 'no binding is obtained');
